# method-summary: ovarian cancer cell viability with rucaparib, profiling panel, oncology-focused library, rucaparib conditional (AID 1508598)
# applied-conditions: patient-derived ovarian cancer cells, CellTiter-Glo viability, 144 h; at 0.0195 µM; OCI-C5x cells; with rucaparib 10 µM; stronger effect = lower value; 100% = cells with rucaparib alone
measured-attribute: viability (%)
Give bare numbers, in %.

Below: 3 compounds and their reported viability.
1. NC(=O)Nc1sc(-c2ccc(F)cc2)cc1C(N)=O: 115
2. N#Cc1c(O)c2c(-c3ccc(-c4ccccc4O)cc3)csc2[nH]c1=O: 112
3. O=C1CN2Cc3c(ccc(Cl)c3Cl)N=C2N1: 111

We now examine a further compound.
Provide one value: measured viability of CN(C)CCCn1cc(C2=C(c3c[nH]c4ccccc34)C(=O)NC2=O)c2ccccc21
118

----------
# method-summary: differential killing of epithelial or mesenchymal cells, primary screen, imaging, PC-3E GFP, TEM4-18 mCherry, co-culture (AID 1345086);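 note: cells exposed to compound for 72 h before imaging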
# applied-conditions: imaging cell counts, measured here: epithelial PC-3E GFP cell survival, at 1 µM
Provide the reported normalised cell number of each item.
Numbers only.

Give measured normalised cell number for every item shown.
1. CC1(C)C2CC[C@]3(C)C(C(=O)C=C4[C@@H]5C[C@@](C)(C(=O)O)CC[C@]5(C)CC[C@]43C)[C@@]2(C)CC[C@@H]1OC(=O)CCC(=O)O (some centres undefined)
2. NC(=O)C[C@H](NC(=O)OCc1ccccc1)C(=O)O
3. CC[C@H](C)C(=O)O[C@H]1CCC=C2C=C[C@H](C)C(CCC3C[C@@H](O)CC(=O)O3)[C@H]21 (some centres undefined)
4. OC[C@H]1OC([S-])[C@H](O)[C@@H](O)[C@@H]1O.[Au+] (some centres undefined)
5. NC(COCc1ccccc1)C(=O)O (centres undefined)
6. CN(C)CC(=O)OC[C@@H](O)[C@@H](O)[C@H](O)[C@@H](O)C(=O)O

1. 1.01
2. 0.87
3. 0.95
4. 1.15
5. 1.19
6. 1.08

----------
Provide the reported parasite load remaining of each item.
# method-summary: liver-stage malaria parasite growth inhibition, primary screen, cell-based, HepG2, luciferase luminescence, HepG2 viability (AID 624349);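 note: 100% = mean of DMSO negative control wells on the same plate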
# applied-conditions: P. berghei liver stage in HepG2, luciferase luminescence, concentration not given here; stronger effect = lower value
One number for each entry, in %.

Below: 10 compounds and their reported parasite load remaining.
1) COc1cccc2c1C(=O)c1c(O)c3c(c(O)c1C2=O)C[C@@](O)(C(=O)CO)C[C@@H]3O[C@H]1C[C@H](N)[C@@H](O)[C@H](C)O1: -0.12
2) CC(=O)OCC(=O)[C@@]1(OC(C)=O)[C@@H](C)CC2C3C[C@H](F)C4=CC(=O)C=C[C@]4(C)[C@@]3(F)[C@@H](O)C[C@@]21C (stereo not given in full): 202
3) CO[C@H]1/C=C/O[C@@]2(C)Oc3c(C)c(O)c4c(O)c(c(C=NN5CCN(C6CCCC6)CC5)c(O)c4c3C2=O)NC(=O)/C(C)=C\C=C\[C@H](C)[C@H](O)[C@@H](C)[C@@H](O)[C@@H](C)[C@H](OC(C)=O)[C@@H]1C: 21
4) Cc1sc(N)c(C(=O)c2cccc(C(F)(F)F)c2)c1C: 28.2
5) CC1(C)SC2C(NC(=O)C(N)c3ccccc3)C(=O)N2C1C(=O)O (stereo not given): 64.5
6) OC[C@@H](O)[C@@H](O)[C@H](O)[C@@H](O)CO: 34.8
7) Oc1ccc(Nc2nc(-c3ccc(Cl)cc3)cs2)cc1: 34.6
8) CC12CCC(=O)C=C1CCC1C2CCC2(C)C1CCC2(O)C(=O)CO (stereo not given): 47.2
9) C[C@H]1O[C@@H](O[C@H]2[C@@H](O)C[C@H](O[C@H]3[C@@H](O)C[C@H](O[C@H]4CC[C@@]5(C)[C@H](CC[C@@H]6[C@@H]5C[C@@H](O)[C@]5(C)C(C7=CC(=O)OC7)CC[C@]65O)C4)O[C@@H]3C)O[C@@H]2C)C[C@H](O)[C@@H]1O (stereo not given in full): -5.28
10) O=C1c2c(O)cc(O)cc2O[C@H](c2ccc(O)c(O)c2)[C@H]1O: 112

Give measured parasite load remaining for every item shown.
1. O=C1CN(N=Cc2ccc([N+](=O)[O-])o2)C(=O)N1
2. CC(=O)Oc1ccc2c(c1)CCC1C2CC[C@]2(C)C(=O)CCC12 (stereo not given in full)
3. CO[C@H]1/C=C/O[C@@]2(C)Oc3c(C)c(O)c4c(O)c(c(C=NN5CCN(C)CC5)c(O)c4c3C2=O)NC(=O)/C(C)=C\C=C\[C@H](C)[C@H](O)[C@@H](C)[C@@H](O)[C@@H](C)[C@H](OC(C)=O)[C@@H]1C
4. CCCCC(=O)O[C@]1(C(=O)CO)[C@@H](C)CC2C3CCC4=CC(=O)C=C[C@]4(C)[C@@]3(F)C(O)C[C@@]21C (stereo not given in full)
5. CN(CCO)CC(O)Cn1cnc2c1c(=O)n(C)c(=O)n2C (stereo not given) (tested in a mixture with another compound)

[0.39, 88.9, 23.7, 94.9, 65]
